Give IC90 for every item shown.
tested on: M. tuberculosis H37Rv growth inhibition; assay: Mycobacterium tuberculosis H37Rv growth inhibition, putative kinase inhibitor library, confirmatory dose response (AID 2842);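 further: bacteria incubated one week before Alamar blue readout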

Answered examples (5):
compound | measuredProperty | observedMeasurement
COc1cc2ccccc2cc1C(=O)Nc1nccs1 | IC90 | 30.2 µg/mL
Nc1ncnc(Sc2nc3ccccc3[nH]2)c1[N+](=O)[O-] | IC90 | 17.1 µg/mL
OCCN1CCN(c2nc(Nc3cccc(Cl)c3)c3cnn(-c4ccccc4)c3n2)CC1 | IC90 | 0.73 µg/mL
O=C1CN(C(=O)c2cccc3ccccc23)C(c2ccccc2)c2cc(Br)ccc2N1 (stereo not given) | IC90 | 8.15 µg/mL
O=C(Nc1nnc(-c2ccc3c(c2)CCCC3)o1)c1ccccc1 | IC90 | 7.25 µg/mL

Hi there! I need IC90 for each item below, if you can.
1. COc1ccc(C(=O)Nc2nc3c(s2)CCCC3)c(OC)c1
2. COc1cccc(Nc2cc(C)nc3c(-c4ccccc4)cnn23)c1
3. COc1ccc(Nc2nc(N3CCN(Cc4ccccc4)CC3)nc3nccnc23)cc1
4. COc1cc(Br)cc(/C=N/Nc2nc(=O)[nH]nc2C)c1O
5. CN1C(=O)c2cccc(NC(=O)c3ccc([N+](=O)[O-])s3)c2C1=O
6. COc1ccc2c(c1)c1nnc(-c3ccc(C)cc3)c-1cn2Cc1ccccc1OC

6.13 µg/mL
1.83 µg/mL
4.69 µg/mL
< 0.2 µg/mL
25.1 µg/mL
4.23 µg/mL

Hi there! I need IC90 for each item below, if you can.
1. O=C(CCc1ccccc1)Nc1nnc(-c2ccc(Cl)s2)o1
2. Clc1cc(Cl)c2nc(N3CCCC3)sc2c1
3. CCCCC(=O)Nc1nnc(-c2ccc3c(c2)OCCO3)o1
4. O=C(Nc1nnc(-c2cccs2)o1)c1ccc([N+](=O)[O-])s1
5. O=C(CN1CCOCC1)Nc1ncc(Cc2cc(Cl)cc(Cl)c2)s1
6. O=C(CCSc1ccccc1)Nc1nnc(-c2ccccc2)o1
7. O=C(Nc1nnc(-c2ccc(F)cc2)o1)c1cccc(Br)c1
8. O=C(/C=C/c1cccs1)Nc1nnc(-c2ccc3c(c2)OCCO3)o1

2.27 µg/mL
19 µg/mL
9.06 µg/mL
1.69 µg/mL
14.9 µg/mL
12.9 µg/mL
93.6 µg/mL
37 µg/mL

Hi there! I need IC90 for each item below, if you can.
1. O=C(Nc1nnc(-c2ccc3c(c2)CCCC3)o1)c1ccc(Cl)s1
2. Cc1ccc(C)c(-c2nnc(NC(=O)C3COc4ccccc4O3)o2)c1 (stereo not given)
3. CCCCn1c(N2CCN(Cc3ccc(Cl)c(Cl)c3)CC2)nc2c1c(=O)[nH]c(=O)n2C
4. CCN1C(=O)c2cccc3c(NC(=O)c4ccc(S(=O)(=O)N(C)C)cc4)ccc1c23
5. O=C(OCn1nnc2ccccc2c1=O)c1cccs1
6. CC(C)(C)C(=O)Nc1nnc(C2=COCCO2)o1

3.63 µg/mL
1.18 µg/mL
7.15 µg/mL
24.2 µg/mL
4.31 µg/mL
48.6 µg/mL

====

system: M. tuberculosis H37Rv growth inhibition; assay: Mycobacterium tuberculosis H37Rv growth inhibition, putative kinase inhibitor library, confirmatory dose response (AID 2842);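 further: bacteria incubated one week before Alamar blue readout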
Give IC90 for every item shown.

Answered examples (4):
compound | IC90
Cc1ccccc1C(=O)N1N=C(c2c(-c3ccccc3)c3cc(Br)ccc3[nH]c2=O)CC1c1ccccc1 (stereo not drawn) | 1.68 µg/mL
O=C(Nc1nnc(-c2ccc(Cl)cc2)o1)c1ccccc1Br | 2.46 µg/mL
CCOC(=O)c1sc(NC(=O)CCSc2ccccc2)cc1C | 0.82 µg/mL
COc1cccc(Cn2cc3c(-c4ccc(Cl)cc4)nnc-3c3cc(OC)c(OC)cc32)c1 | 15.2 µg/mL

Hi there! I need IC90 for each item below, if you can.
1. CC(C)(C)c1ccc(C(=O)Nc2nnc(-c3cccnc3)o2)cc1
2. COc1ccc(C(=O)Nc2nc3c(s2)CCCC3)cc1OC
3. CC(C)OC(=O)COc1ccc2cc(-c3ccccc3)c(=O)oc2c1
4. COc1ccc2nc(N=Nc3c(C)[nH]n(-c4ccccc4)c3=O)sc2c1
5. Cc1ccc(C)c(-c2nnc(NC(=O)c3ccccc3C)o2)c1
6. Cc1ccc(C)c(-c2csc(NC(=O)c3ccc([N+](=O)[O-])s3)n2)c1

1: 0.84 µg/mL; 2: 22.8 µg/mL; 3: 2.97 µg/mL; 4: 7.7 µg/mL; 5: 2.48 µg/mL; 6: 3.37 µg/mL

Hi there! I need IC90 for each item below, if you can.
1. O=C(COc1ccc(Cl)cc1)NCCSc1ncc(-c2ccc(F)cc2)[nH]1
2. CC(C)c1ccc(OCC(=O)Nc2nccs2)cc1
3. COc1ccc(CC(=O)N2CCN=C2SCc2ccc(C(F)(F)F)cc2)cc1
4. CCS(=O)(=O)c1cccc(C(=O)Nc2nnc(-c3ccc4c(c3)CCCC4)o2)c1
5. O=C(Nc1nnc(-c2ccc(Cl)cc2)o1)c1cccc(C(F)(F)F)c1
6. O=C(Nc1nnc(-c2ccc3c(c2)OCCO3)o1)c1ccccc1Cl
7. Cc1ccc(C)c(-c2nnc(NC(=O)C3=COCCO3)o2)c1
8. O=C1N/C(=N\N=C\c2ccccc2O)SC1Cc1ccc(F)cc1 (stereo not drawn)

10 µg/mL
6.88 µg/mL
23.9 µg/mL
16.3 µg/mL
2.99 µg/mL
4.5 µg/mL
< 0.2 µg/mL
< 0.2 µg/mL

Hi there! I need IC90 for each item below, if you can.
1. O=C(Nc1nnc(-c2cccs2)o1)c1nc2ccccc2s1
2. O=C(Nc1nnc(-c2ccc3c(c2)CCCC3)o1)c1ccccc1F
3. CCc1ccc(-c2ccc(SCC(N)=O)nn2)cc1
4. COc1ccc(OC)c(Nc2nc(NCCN(C)C)nc3c2cnn3-c2ccccc2)c1
5. Cc1ccc(C(=O)c2cn(Cc3ccc(F)cc3)c3ccc(F)cc3c2=O)cc1

["2.98 µg/mL", "0.93 µg/mL", "4.66 µg/mL", "7.29 µg/mL", "12.5 µg/mL"]

====

system: M. tuberculosis H37Rv growth inhibition; experiment: Mycobacterium tuberculosis H37Rv growth inhibition, putative kinase inhibitor library, confirmatory dose response (AID 2842);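 further: bacteria incubated one week before Alamar blue readout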
Give IC90 for every item shown.

compound | tgt | observedMeasurement
CCc1ccc(Nc2ncnc3c2cnn3-c2ccc(C)cc2C)cc1 | M. tuberculosis H37Rv growth inhibition | 6.47 µg/mL

Hi there! I need IC90 for each item below, if you can.
1. COC(=O)c1cc(C(=O)OC)cc(-n2c(C)cc(C(=O)CCl)c2C)c1
2. CCCC(=O)Nc1nnc(-c2cc(C)ccc2C)o1
3. O=C(CCc1ccccc1)Nc1nnc(-c2ccc3c(c2)CCCC3)o1
4. O=S(=O)(Nc1cc(Cl)c(O)c2ccccc12)c1ccc(F)cc1
5. O=C(CCCN1C(=O)/C(=C/c2ccco2)SC1=S)Nc1ccccc1
6. CCc1ccc(-c2nnc3c4cc5c(cc4n(Cc4ccc(C)cc4)cc2-3)OCCO5)cc1
7. O=C(OCc1nc2ccccc2s1)c1ccc(C(=O)c2ccccc2)cc1
8. Cc1ccc(CC(=O)N(CCCn2ccnc2)c2nc3ccccc3s2)c(C)c1

6.39 µg/mL
2.09 µg/mL
30 µg/mL
6.28 µg/mL
2.96 µg/mL
15.3 µg/mL
17.3 µg/mL
4.82 µg/mL

Hi there! I need IC90 for each item below, if you can.
1. O=C(OCn1nnc2ccccc2c1=O)C(c1ccccc1)c1ccccc1
2. OC(CNCc1ccco1)Cn1c2ccc(Cl)cc2c2cc(Cl)ccc21 (stereo unspecified)

8.87 µg/mL
1.71 µg/mL

====

Give IC90 for every item shown.
tested on: M. tuberculosis H37Rv growth inhibition; assay: Mycobacterium tuberculosis H37Rv growth inhibition, putative kinase inhibitor library, confirmatory dose response (AID 2842);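 further: bacteria incubated one week before Alamar blue readout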

Answered examples (3):
molecule | IC90
O=C(Nc1nnc(-c2ccc(Cl)cc2)o1)c1ccco1 | 1.11 µg/mL
CC(C)N1CCc2c(sc(NC(=O)c3ccc([N+](=O)[O-])s3)c2C(N)=O)C1 | 6.33 µg/mL
CSc1ccccc1-c1nnc(NC(=O)c2cc([N+](=O)[O-])ccc2Cl)o1 | 2.12 µg/mL

Hi there! I need IC90 for each item below, if you can.
1. O=C(CCOc1ccccc1)Nc1nnc(-c2ccccc2)o1
2. O=C(Nc1nnc(-c2ccc(Cl)cc2)o1)c1cc2ccccc2oc1=O
3. Cc1ccc(C(=O)Nc2nnc(-c3cc(C)ccc3C)o2)cc1
4. COc1ccc(Cl)cc1NC(=O)NC1CC(=O)N(c2ccc(C)c(C)c2)C1 (stereo not drawn)
5. O=C(Nc1nnc(-c2ccc(Cl)cc2)o1)C1CCCCC1
6. CCOC(=O)c1csc(Nc2nc3c(SC)cccc3s2)n1
7. COc1ccc(CNc2nccn(-c3cc(C)c(Cl)cc3OC)c2=O)cc1
8. COc1cccc(-c2nnc(NC(=O)c3ccccc3Br)o2)c1

1: 6.68 µg/mL; 2: 18.2 µg/mL; 3: 41.5 µg/mL; 4: 28.5 µg/mL; 5: 5.6 µg/mL; 6: 3.13 µg/mL; 7: 18.1 µg/mL; 8: 2.17 µg/mL

Hi there! I need IC90 for each item below, if you can.
1. O=C(c1cccs1)N(CCCn1ccnc1)c1nc2ccccc2s1
2. COc1ccc(C)c2sc(NNC(=O)c3nc4ccccc4s3)nc12
3. Cc1cccc(Cn2cc3c(-c4ccc(C)c(C)c4)nnc-3c3cc4c(cc32)OCCO4)c1

["6 µg/mL", "38 µg/mL", "3.47 µg/mL"]

Hi there! I need IC90 for each item below, if you can.
1. O=C(c1ccc(NC2=C(Cl)C(=O)N(Cc3ccccc3)C2=O)cc1)N1CCCCC1
2. O=C(Cc1cccc2ccccc12)Nc1nnc(-c2cccs2)o1
3. CCCCOc1ccc(C(=O)Nc2nnc(-c3cc(C)ccc3C)o2)cc1
4. COc1cccc(-c2nnc(SCC(=O)Nc3cc(C)on3)o2)c1
5. COc1ccc(-c2nnc(NC(=O)C(C)C)o2)cc1
6. COc1cc(OC)cc(C(=O)Nc2nnc(-c3ccc(Br)cc3)o2)c1
7. O=C(Cc1ccccc1)Nc1nnc(-c2ccc3c(c2)OCCO3)o1

1. 6.24 µg/mL
2. 40.1 µg/mL
3. 25.4 µg/mL
4. 3.26 µg/mL
5. 19.9 µg/mL
6. 52.3 µg/mL
7. 15.8 µg/mL

Hi there! I need IC90 for each item below, if you can.
1. O=C(CSc1nc(-c2cccc(F)c2)[nH]c1-c1ccccc1)Nc1ccc2c(c1)OCO2
2. Cc1ccc2sc(N(CCCn3ccnc3)C(=O)c3ccc(F)cc3)nc2c1C

1. 5.1 µg/mL
2. 3.68 µg/mL

Where do the numbers come from? From PubChem BioAssay AID2842.
